The values you see were collected from PubChem BioAssay (NCATS).

tested on: CAOV3; assay: Primary qHTS to identify gynecologic anti-cancer compounds using libraries of approved drugs and bioactive compounds (AID 1345084); settings: Gynecologic cancer cell panel viability, ATPlite luminescence, 48 h; series mostly up to 57.5 µM; further: on the % scale 0 is the no-effect control and ±100 the full control effect; nearly all actives have a fitted effect of over 55% in size
Inconclusive results are not listed. Activity calls are given as the source filed them. The call rests on the fitted dose curve; in most records, active means well fitted cell-killing curve with a large enough effect; inconclusive means small, poorly fitted or top-dose-only effect, or effect the other way; inactive means flat fitted curve, though single readings scatter.
measurement name: activity change, negative = cytotoxicity

The examples below pair each entry with its known result.
OCC(O)C(c1c[nH]c2ccccc12)c1c[nH]c2ccccc12 (stereo not drawn): inactive
Cc1ncc(NC(=O)c2ccc(CN3CCN(C)CC3)c(C(F)(F)F)c2)cc1Nc1nccc(-c2cccnc2)n1: inactive
Cc1cn(-c2cc(NC(=O)c3ccc(C)c(Nc4nccc(-c5cnccn5)n4)c3)cc(C(F)(F)F)c2)cn1: inactive
COc1ccc(OC2OC(CO[C@@H]3O[C@@H](C)[C@H](O)[C@@H](O)[C@H]3O)C(O)C(O)C2O)cc1OC (stereo partly drawn): inactive
O=C(OC[C@H]1O[C@H](O[C@H]2CO[C@H](CO)[C@@H](O)[C@@H]2O)[C@H](O)[C@@H](O)[C@H]1O)c1ccccc1: inactive
CC1CCC2C(C)(C)C(O)C(O)CC2(C)C12Cc1c(O)cc(CO)c(C=O)c1O2 (stereo not drawn): inactive
C=C1[C@@H]2CC[C@@]3(C)[C@H](c4ccoc4)OC(=O)C[C@]13O[C@H]1CC(=O)C(C)(C)[C@H](C(O)C(=O)OC)[C@]12C (stereo partly drawn): inactive

Let us move to another entry and its activity change, negative = cytotoxicity.
Input line: // returns reported activity change, negative = cytotoxicity for input `O=C(O)c1ccnc(-c2cc(C(=O)NCCc3ccccc3)ccn2)c1`
Output line: inactive

----------
test system: NIH3T3; assay: Cytotoxic Profiling of Annotated Libraries Using Quantitative High-Throughput Screening (AID 1296008); conditions: Five cell lines viability, CellTiter-Glo ATP luminescence, 48-72 h; further: nearly all actives have a fitted effect of over 60% in size
Results filed as inconclusive are left out. Calls of active or inactive are those of the source. Calls come from the whole dose curve; as a rule, active = well fitted inhibition curve with a large enough effect; inconclusive = small, poorly fitted or top-dose-only effect; inactive = flat fitted curve, though single readings scatter.
measurement name: outcome

The examples below pair each entry with its known result.
CC1=C2C(=O)C=C(CO)C2C2OC(=O)C(CS(=O)(=O)O)C2C(OC(=O)Cc2ccc(O)cc2)C1 (configuration not stated): inactive
CC12CC(O)C(O)C=C1c1cc(O)cc(O)c1C(=O)O2 (configuration not stated): inactive
CC1(C)C=Cc2c(ccc3c2[N+]([O-])=C2C3(O)CC34NC(=O)C5(CCCN5C3=O)CC4C2(C)C)O1 (configuration not stated): inactive
C=C(C(=O)OC)[C@]12O[C@@](C)(CC[C@@]3(O)/C(=C\C)C(=O)O[C@]3(C)C[C@@H]1OC(=O)C(CO)CN1CCCC1C(=O)O)CC2=O (some centres not stated): inactive
COc1cc(/C=C/C(=O)O[C@H]2[C@H](O)[C@@H](CO)O[C@@]2(CO)O[C@H]2O[C@H](CO)[C@@H](O)[C@H](O)[C@H]2O)cc(OC)c1O: inactive
COc1ccc(/C=C/C(=O)O[C@@H]2[C@@H](O[C@@H]3O[C@H](CO)[C@@H](O)[C@H](O)[C@H]3O)[C@@H](O)[C@H](O[C@H]3C4C=CO[C@@H](O[C@@H]5O[C@H](CO)[C@@H](O)[C@H](O)[C@H]5O)C4[C@@]4(CO)O[C@@H]34)O[C@H]2C)cc1 (some centres not stated): inactive
C[C@@H]1CC[C@]2(C(=O)O)CC[C@]3(C)C(=CCC4[C@@]5(C)C[C@@H](O)[C@H](O)[C@@](C)(CO)C5CC[C@]43C)C2[C@H]1C (some centres not stated): inactive
CC1=C[C@H](O)[C@H]2C(C)(C)CCC[C@]2(C)[C@@]1(O)CO: inactive
CC(=O)Nc1cccc2c1c(Sc1ccc(Cl)cc1)c(C)n2CC(=O)O: inactive
CC1=C(CCC(C)O[C@@H]2O[C@H](CO)[C@@H](O)[C@H](O)[C@H]2O)C(C)(C)CC(O)C1 (some centres not stated): inactive

Input line: For C/C=C/C=C/C1=C2C(=O)C3(C)C4C(C(=O)CC(O)/C=C/C)=C(O1)C1(C)C2C2(C)OC1(O)C4(C)OC23O (configuration not stated) , what is its reported outcome?
Output line: inactive

Input line: Given the entry `C=CCC1=C[C@]2(OC)[C@H](C)[C@@H](c3ccc(OC)c(OC)c3)O[C@]2(OC)CC1=O` , report its measured outcome.
Output line: inactive

Input line: Data request, read-out outcome, for `Cc1cc(CO)c(O)c(C(=O)CC2CC(=O)NC(=O)C2)c1`
Output line: inactive

Input line: Bench note: what outcome did C[C@@]1(C(=O)O)CCC[C@@]2(C)C3=CC[C@H]4C[C@@]3(CC[C@H]12)CC4(O)CO (some centres not stated) show?
Output line: inactive

Input line: What measured outcome goes with `Cc1ccc(-c2c(-c3nn(C)c4ncnc(N5CC[C@H](N6CCCCC6)C5)c34)cnn2C)cc1` ?
Output line: inactive

Input line: Quick check: outcome of CC(=O)OC1C(O)/C(C)=C\C2C(OC(=O)c3ccccc3)C(C)CC2(OC(C)=O)C(OC(C)=O)C(C)/C=C/C(C)(C)C1OC(C)=O (configuration not stated) ?
Output line: inactive

Input line: Entry `CC1=CC(=O)[C@]2(O[C@@H]3O[C@@H](C)[C@H](O)[C@@H](O)[C@H]3O)C=CO[C@@H](O[C@@H]3O[C@H](CO)[C@@H](O)[C@H](O)[C@H]3O)[C@H]12` has what outcome?
Output line: inactive

Input line: outcome for O=C(/C=C/c1ccc(O)c(O)c1)O[C@@H]1[C@@H](O)[C@H](OC2CCCCC2O)O[C@H](CO)[C@H]1O (some centres not stated) ?
Output line: inactive

Input line: Field request: outcome | item: CC(=O)/C=C/C1(O)C(C)=CC(=O)CC1(C)C (configuration not stated)
Output line: inactive

Input line: Quick one: outcome of COc1ccc(C2OCC3C(c4cc(OC)c5c(c4)OCO5)OCC23)cc1OC (configuration not stated) ?
Output line: inactive

Input line: Which measured outcome value corresponds to CC(C)(OC1OC(CO)C(O)C(O)C1O)C1CCC(O)(CO)C2CC(=O)C(C)(O)C2C1 (configuration not stated) ?
Output line: inactive

Input line: Reported outcome, compound `CNc1nc(Cc2ccccc2)nc2c1CCNC[C@@H]2C` : ____
Output line: inactive

----------
system: CASKI; experiment: Primary qHTS to identify gynecologic anti-cancer compounds using libraries of approved drugs and bioactive compounds (AID 1345084); details: Gynecologic cancer cell panel viability, ATPlite luminescence, 48 h; series mostly up to 57.5 µM; further: on the % scale 0 is the no-effect control and ±100 the full control effect; nearly all actives have a fitted effect of over 55% in size
Records with an inconclusive call do not appear. Calls of active or inactive are those of the source. The call rests on the fitted dose curve; in most records, active means well fitted cell-killing curve with a large enough effect; inconclusive means small, poorly fitted or top-dose-only effect, or effect the other way; inactive means flat fitted curve, though single readings scatter.
measurement name: activity change, negative = cytotoxicity

// known answers, use as guide
COc1cc(/C=C/C(=O)O[C@H]2[C@H](O)[C@@H](CO)O[C@@]2(CO)O[C@H]2O[C@H](CO)[C@@H](O)[C@H](O)[C@H]2O)cc(OC)c1O: inactive
COc1cccc(CN(C(=O)CC(C)(C)C)C2CC(C(=O)N3CCNCC3)N(Cc3ccc4c(c3)OCO4)C2)c1 (stereo unspecified): inactive
Nc1nc2c(nc(Sc3ccc(Cl)cc3)n2[C@@H]2O[C@@H]3COP(=O)(O)O[C@H]3[C@H]2O)c(=O)[nH]1: inactive
COc1cccc(C)c1C(=O)O[C@@H]1C[C@H](O[C@H]2[C@H](O)C[C@H](O[C@@H]3CCC[C@H]4[C@H]3C=C[C@@H]3CCCC/C=C/[C@H]5C=C(C(=O)O)[C@@H](C)C[C@@]56OC(=O)C(=C6O)OC(=O)[C@@]34C)O[C@@H]2C)O[C@H](C)[C@H]1O: 10.4% [at 11.6 µM] (inactive)
OC[C@@]1(O)CO[C@@H](OC[C@H]2O[C@@H](Oc3ccccc3)[C@H](O)[C@@H](O)[C@@H]2O)[C@@H]1O: inactive

Proceeding to the next molecule to report its activity change, negative = cytotoxicity.
Input line: I have this molecule here, C=C1C(OC(C)=O)CCC2(C)CCC(C(C)(C)O)CC12 (stereo unspecified) , and I need its recorded activity change, negative = cytotoxicity.
Output line: inactive

----------
system: Tov112D; assay: Primary qHTS to identify gynecologic anti-cancer compounds using libraries of approved drugs and bioactive compounds (AID 1345084); conditions: Gynecologic cancer cell panel viability, ATPlite luminescence, 48 h; series mostly up to 57.5 µM; further: on the % scale 0 is the no-effect control and ±100 the full control effect; nearly all actives have a fitted effect of over 55% in size
Results filed as inconclusive are left out. Activity calls are given as the source filed them. The call rests on the fitted dose curve; in most records, active means well fitted cell-killing curve with a large enough effect; inconclusive means small, poorly fitted or top-dose-only effect, or effect the other way; inactive means flat fitted curve, though single readings scatter.
measurement name: activity change, negative = cytotoxicity

Examples with answers:
OC[C@@]1(O)CO[C@H](OC[C@H]2O[C@@H](OCCc3ccccc3)[C@H](O)[C@@H](O)[C@@H]2O)[C@@H]1O: inactive
COc1cc(C(O)C2COC(c3ccc(OC4OC(CO)C(O)C(O)C4O)c(OC)c3)C2CO)ccc1O (stereo unspecified): inactive
COc1c2c(c(C)c3c1C(=O)OC3)OC1(C)CC(O)C34OC(OC)(CC(O)C3(C)C1C2)OC4(C)C (stereo unspecified): inactive
O=C(O[C@@H]1O[C@H](CO)[C@@H](O)[C@H](O)[C@H]1O)c1ccccc1: inactive
COC(=O)CCC1(C)C(C(C)(C)O)C(O)CC2(C)Oc3c(C)c4c(c(OC)c3CC21)C(=O)OC4 (stereo unspecified): inactive

# context switch: different compound, same activity change, negative = cytotoxicity
Input line: Can you look up the measured activity change, negative = cytotoxicity of `COc1cccc(C(=O)NCCNc2nc3cc(C)cc(C)c3cc2C#N)c1` for me?
Output line: inactive
